# assayed_system: UniProtKB Q8TDV5
# assay_protocol: Agonist activity at GPR119 expressed in HEK293 cells assessed as cAMP level by flash plate assay
# Type: functional, cell-based
Reported EC50 by item:
Give the value in nM but do not write nM after it.

Measured EC50, CCOC(=O)C1CCN(c2ncnc(Oc3ccc(C(=O)CC(=O)OC)cc3)c2[N+](=O)[O-])CC1 : 1000

CCOC(=O)C1CCN(c2ncnc(Oc3ccc(S(N)(=O)=O)cc3)c2[N+](=O)[O-])CC1 has a reported EC50 of 3000

Item: CCOC(=O)C1CCN(c2ncnc(Oc3ccc(-n4cncn4)cc3)c2[N+](=O)[O-])CC1 | EC50: 2500

Record CCOC(=O)C1CCN(c2ncnc(Oc3ccc(CCC(C)=O)cc3)c2[N+](=O)[O-])CC1 . Reported EC50: 1700

Summary for this compound, CCOC(=O)C1CCN(c2ncnc(Oc3ccc(S(C)(=O)=O)cc3)c2[N+](=O)[O-])CC1 : EC50 is 1900

Others:
# EC50 (compound: CCOC(=O)C1CCN(c2ncnc(Nc3ccc(-n4cncn4)cc3)c2[N+](=O)[O-])CC1 ) is 400

Looking up CCOC(=O)C1CCN(c2ncnc(Nc3ccc(S(C)(=O)=O)cc3)c2[N+](=O)[O-])CC1 , I see its EC50 listed as 1200

====

# assay_protocol: Half life in Sprague-Dawley rat at 10 mg/kg, po
# Assay type: ADME, organism-based
# Design: dose 10 mg/kg, route oral
# experimental_context: in vivo
observation_type: half-life (h)
# output: bare number, implied unit h

Field half-life (entry CC(C)c1noc(C2CCN(c3ncnc(Nc4ccc(S(C)(=O)=O)cc4F)c3[N+](=O)[O-])CC2)n1 ) reads 1.1

====

# assayed_system: Glucose-dependent insulinotropic receptor (Homo sapiens)
# assay_protocol: Agonist activity at […] transfected in Xenopus dermal melanophore assessed as dispersion of melatonin-induced pigmentation
# Format: functional
observation_type: pEC50
Quick note: pEC50 means taking -log10 of the concentration in moles per liter.

Field pEC50 (entry CS(=O)(=O)c1ccc(Nc2ncnc(N3CCC(c4nc(CC5CC5)no4)CC3)c2[N+](=O)[O-])cc1 ) reads 6.80

// pEC50 value for CCc1noc(C2CCN(c3ncnc(Nc4ccc(S(C)(=O)=O)cc4)c3[N+](=O)[O-])CC2)n1 : 8.00

Entry CC(C)c1nc(C2CCN(c3ncnc(Nc4ccc(S(=O)(=O)C(C)C)cc4F)c3[N+](=O)[O-])CC2)[o+][n-]1 ; pEC50 = 8.10

The compound CS(=O)(=O)c1ccc(Nc2ncnc(N3CCC(c4nc(-c5cccnc5)[n-][o+]4)CC3)c2[N+](=O)[O-])cc1 showed pEC50 equal to 6.18

Lab note: CC(C)(C)c1noc(C2CCN(c3ncnc(Nc4ccc(S(C)(=O)=O)cc4)c3[N+](=O)[O-])CC2)n1 gave pEC50 of 8.82

---
# compound CCS(=O)(=O)c1ccc(Nc2ncnc(N3CCC(c4nc(C(C)C)[n-][o+]4)CC3)c2[N+](=O)[O-])c(F)c1 ; its pEC50 = 8.15

Quick note, pEC50 for CC(C)c1noc(C2CCN(c3ncnc(Nc4ccc(S(C)(=O)=O)cc4)c3[N+](=O)[O-])CC2)n1 landed at 8.24

The compound Cc1noc(C2CCN(c3ncnc(Nc4ccc(S(C)(=O)=O)cc4)c3[N+](=O)[O-])CC2)n1 showed pEC50 equal to 6.59

Notebook: CCS(=O)(=O)c1ccc(Nc2ncnc(N3CCC(c4nc(C(C)C)no4)CC3)c2[N+](=O)[O-])cc1 , pEC50 read as 7.77

Query CCCS(=O)(=O)c1ccc(Nc2ncnc(N3CCC(c4nc(C(C)C)no4)CC3)c2[N+](=O)[O-])cc1 yields pEC50 of 8.33

====

# assayed_system: Glucose-dependent insulinotropic receptor (Homo sapiens, UniProt Q8TDV5)
# Sequence (Q8TDV5 whole entry): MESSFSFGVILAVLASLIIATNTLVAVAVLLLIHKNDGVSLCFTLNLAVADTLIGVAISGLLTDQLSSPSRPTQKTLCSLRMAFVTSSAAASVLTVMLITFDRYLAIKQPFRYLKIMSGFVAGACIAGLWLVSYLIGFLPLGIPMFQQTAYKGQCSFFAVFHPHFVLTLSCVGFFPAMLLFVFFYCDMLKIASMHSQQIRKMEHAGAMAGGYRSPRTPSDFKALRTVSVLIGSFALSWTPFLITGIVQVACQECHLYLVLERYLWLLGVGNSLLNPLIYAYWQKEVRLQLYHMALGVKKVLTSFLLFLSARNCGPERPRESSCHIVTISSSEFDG
# assay_protocol: Agonist activity at […] transfected in Xenopus dermal melanophore assessed as dispersion of melatonin-induced pigmentation
# Type: functional
Exam item: assign criterion met to entries whose EC50 is below 20 nM and criterion not met to entries at or above 20 nM. Note that a value of exactly 20 nM receives criterion not met.

Q. Record CS(=O)(=O)c1ccc(Nc2ncnc(N3CCC(c4nc(-c5cccc(C(F)(F)F)c5)no4)CC3)c2[N+](=O)[O-])cc1 : is its EC50 strictly below 20 nM?
A. criterion not met

Others:
Q. Does CCSc1ccc(Nc2ncnc(N3CCC(c4nc(C(C)C)no4)CC3)c2[N+](=O)[O-])cc1 have EC50 strictly under 20 nM?
A. criterion not met

Q. Consider CC(C)c1noc(C2CCN(c3ncnc(Nc4ccc(S(C)(=O)=O)cc4F)c3[N+](=O)[O-])CC2)n1 . Does its EC50 lie strictly below 20 nM?
A. criterion met

Q. Does CS(=O)(=O)c1ccc(Nc2ncnc(N3CCC(c4nc(C5CC5)no4)CC3)c2[N+](=O)[O-])cc1 have EC50 strictly under 20 nM?
A. criterion not met

Q. In the record for CC(C)c1noc(C2CCN(c3ncnc(Nc4ccc(S(=O)(=O)C(C)C)cc4)c3[N+](=O)[O-])CC2)n1 , is EC50 less than 20 nM?
A. criterion met

Q. In plain terms, does CCCc1noc(C2CCN(c3ncnc(Nc4ccc(S(C)(=O)=O)cc4)c3[N+](=O)[O-])CC2)n1 come in under 20 nM for EC50?
A. criterion not met

Q. Here's an entry: CC(C)c1noc(C2CCN(c3ncnc(Nc4ccc(S(C)(=O)=O)c(F)c4)c3[N+](=O)[O-])CC2)n1 . Is its EC50 below 20 nM?
A. criterion met

Q. Does CC[S+]([O-])c1ccc(Nc2ncnc(N3CCC(c4nc(C(C)C)no4)CC3)c2[N+](=O)[O-])cc1 (stereo not drawn) have EC50 strictly under 20 nM?
A. criterion met
